Data credit: paper PMC5623949

Target: CYP2C19 (Homo sapiens)
Sequence (P33261 whole entry): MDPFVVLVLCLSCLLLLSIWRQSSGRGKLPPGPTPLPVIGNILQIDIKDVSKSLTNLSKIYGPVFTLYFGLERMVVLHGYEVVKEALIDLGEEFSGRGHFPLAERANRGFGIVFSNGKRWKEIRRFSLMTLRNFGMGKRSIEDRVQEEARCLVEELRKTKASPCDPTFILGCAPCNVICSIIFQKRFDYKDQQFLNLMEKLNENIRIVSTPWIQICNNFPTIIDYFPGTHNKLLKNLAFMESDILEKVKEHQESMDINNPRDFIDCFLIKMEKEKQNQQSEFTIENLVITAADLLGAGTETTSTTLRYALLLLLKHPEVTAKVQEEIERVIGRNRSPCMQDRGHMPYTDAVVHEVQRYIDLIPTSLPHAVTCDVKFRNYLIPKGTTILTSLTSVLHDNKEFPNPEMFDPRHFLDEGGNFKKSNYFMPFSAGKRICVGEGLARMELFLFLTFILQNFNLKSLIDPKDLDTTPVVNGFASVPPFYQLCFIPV
Assay: in vitro
Design: cytochrome P450 isoform inhibition liability assay
Protocol: Independent of the effect of any antiparasitic potential of compounds, they were evaluated using a panel of early-toxicity assays comprising cytotoxicity (A549, human lung adenocarcinoma epithelial cell line and WI-38, human lung fibroblasts), mitochondrial toxicity (786-O, human renal carcinoma cell line), hERG inhibition,[31] cytochrome P450 inhibition (CYP1A2, CYP2C9, CYP2C19, CYP2D6, and CYP3A4),[31] and Aurora B kinase inhibition. […] The hDHFR inhibition was determined at 100 μM. […]
Measurement Kind: inhibition at 10 µM (%)
Please give a number only; it is taken to be in %.

Examples with their reported inhibition at 10 µM follow.
[[record]]
molecule = "Cc1nnc(N)s1 [3a]"
units_label = "%"
result_number = -35.5

[[record]]
molecule = "COc1cc(CNc2nnc(N)s2)cc(OC)c1OC [4k]"
units_label = "%"
result_number = 0.2

[[record]]
molecule = "Nc1nnc(NCCc2ccccc2)s1 [4n]"
units_label = "%"
result_number = 29.2

[[record]]
molecule = "Nc1nnc(NCCCc2ccccc2)s1 [4q]"
units_label = "%"
result_number = 17.3

[[record]]
molecule = "Nc1nnc(-c2cccc(-c3ccc(C(F)(F)F)cc3)c2)s1 [2e]"
units_label = "%"
result_number = 12.3

[[record]]
molecule = "COc1ccc(CNc2nnc(N)s2)cc1OC [4j]"
units_label = "%"
result_number = 5.7


Shift focus to the following entry.
# input Read the entry Nc1cccc(-c2ccc(-c3nnc(N)s3)cc2)c1 [2b] and write its reported inhibition at 10 µM.
# output -3.9

---

Target: UniProt:P05177
Sequence (P05177 1-516): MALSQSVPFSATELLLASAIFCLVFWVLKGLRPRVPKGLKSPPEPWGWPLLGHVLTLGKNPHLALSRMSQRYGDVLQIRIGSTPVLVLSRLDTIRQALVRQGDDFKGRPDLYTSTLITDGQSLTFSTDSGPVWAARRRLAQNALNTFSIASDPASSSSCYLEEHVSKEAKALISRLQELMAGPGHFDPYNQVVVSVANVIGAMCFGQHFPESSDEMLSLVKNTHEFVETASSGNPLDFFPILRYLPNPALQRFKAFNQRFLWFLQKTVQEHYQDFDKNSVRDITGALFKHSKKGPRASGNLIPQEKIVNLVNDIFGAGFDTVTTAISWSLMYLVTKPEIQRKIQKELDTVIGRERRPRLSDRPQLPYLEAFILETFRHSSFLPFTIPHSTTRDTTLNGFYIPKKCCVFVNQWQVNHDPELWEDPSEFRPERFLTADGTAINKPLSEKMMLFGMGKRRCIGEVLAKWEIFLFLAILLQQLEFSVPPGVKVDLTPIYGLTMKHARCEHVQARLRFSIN
Test: in vitro
Design: cytochrome P450 isoform inhibition
Measurement Kind: inhibition at 10 µM
Phrase the answer as number then unit, nothing more needed.

[[record]]
molecule = "Nc1nnc(NCc2ccc(-c3ccccc3)cc2)s1 [4m]"
measurement_kind = "inhibition at 10 µM"
result = "60.4%"


# input Read the entry Nc1nnc(NCCc2cccs2)s1 [4o] and write its reported inhibition at 10 µM.
# output -2.9%

---

Molecular target: CYP2C9 (Homo sapiens)
Sequence (P11712 whole entry): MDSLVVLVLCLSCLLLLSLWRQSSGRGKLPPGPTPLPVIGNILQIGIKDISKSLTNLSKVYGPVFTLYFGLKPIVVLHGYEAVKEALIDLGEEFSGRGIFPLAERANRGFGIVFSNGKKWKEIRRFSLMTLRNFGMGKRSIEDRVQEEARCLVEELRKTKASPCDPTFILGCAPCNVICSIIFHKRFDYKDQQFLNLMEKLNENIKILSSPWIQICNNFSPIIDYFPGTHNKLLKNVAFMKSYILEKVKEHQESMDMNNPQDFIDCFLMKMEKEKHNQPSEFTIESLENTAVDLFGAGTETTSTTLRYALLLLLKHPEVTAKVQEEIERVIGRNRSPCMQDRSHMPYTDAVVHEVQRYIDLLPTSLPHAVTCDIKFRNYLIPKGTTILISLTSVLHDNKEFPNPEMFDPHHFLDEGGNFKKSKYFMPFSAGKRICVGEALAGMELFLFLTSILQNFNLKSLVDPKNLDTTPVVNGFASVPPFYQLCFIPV
Assay: in vitro
Design: cytochrome P450 isoform inhibition
Below, each entry is listed alongside its reported inhibition at 10 µM.
Please give a number only; it is taken to be in %.

[[record]]
sample_smiles = "Nc1nnc(NCc2ccc(-c3ccccc3)cc2)s1"
measurement_kind = "inhibition at 10 µM"
result_number = 46.9


# input Report inhibition at 10 µM from CYP2C9 (Homo sapiens) testing of Nc1nnc(NCCc2cccs2)s1
# output 3.1

---

Target: UniProt P10635
Sequence (P10635 whole entry): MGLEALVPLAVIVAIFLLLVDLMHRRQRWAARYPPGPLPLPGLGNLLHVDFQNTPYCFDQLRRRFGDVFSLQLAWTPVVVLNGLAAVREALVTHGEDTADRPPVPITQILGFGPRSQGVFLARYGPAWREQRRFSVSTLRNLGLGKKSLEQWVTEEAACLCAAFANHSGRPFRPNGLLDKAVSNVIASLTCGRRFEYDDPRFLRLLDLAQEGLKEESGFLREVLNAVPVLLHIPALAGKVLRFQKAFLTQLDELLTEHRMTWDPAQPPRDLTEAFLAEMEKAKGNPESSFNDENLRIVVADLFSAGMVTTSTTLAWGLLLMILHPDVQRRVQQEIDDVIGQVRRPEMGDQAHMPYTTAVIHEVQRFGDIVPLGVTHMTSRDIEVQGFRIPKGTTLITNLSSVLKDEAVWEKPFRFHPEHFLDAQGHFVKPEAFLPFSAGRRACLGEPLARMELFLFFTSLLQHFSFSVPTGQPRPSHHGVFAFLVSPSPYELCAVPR
Assay: in vitro
Set-up: cytochrome P450 isoform inhibition liability assay
Kind request: treat 30% as inclusive, so inhibition at 10 µM at 30% or higher is Criterion met, anything lower is Criterion not met.

[[record]]
molecule = "COC(=O)C(Cc1ccccc1)Nc1nnc(N)s1 (stereo not shown) [4p]"
category = "Criterion met"

[[record]]
molecule = "Nc1nnc(-c2ccc(OCc3ccc(Cl)c(Cl)c3)cc2)s1 [1r]"
category = "Criterion met"

[[record]]
molecule = "Nc1nnc(-c2cc(O)c(O)c(O)c2)s1 [1f]"
category = "Criterion not met"

[[record]]
molecule = "COCCCNc1nnc(N)s1 [4s]"
category = "Criterion not met"

[[record]]
molecule = "Nc1nnc(NCc2ccc(C(F)(F)F)cc2)s1 [4f]"
category = "Criterion met"

[[record]]
molecule = "COc1ccc(-c2nnc(N)s2)cc1OC [1c]"
category = "Criterion not met"

[[record]]
molecule = "Nc1nnc(NCc2cccs2)s1 [4c]"
category = "Criterion not met"

[[record]]
molecule = "COc1cc(CNc2nnc(N)s2)cc(OC)c1OC [4k]"
category = "Criterion not met"


# input Determine whether measured inhibition at 10 µM meets or exceeds 30% for Nc1nnc(/C=C/c2ccccc2)s1 [3h]
# output Criterion not met

# input Determine whether measured inhibition at 10 µM meets or exceeds 30% for Nc1nnc(-c2cccc(-c3ccccc3)c2)s1 [2c]
# output Criterion met

# input Determine whether measured inhibition at 10 µM meets or exceeds 30% for COc1cccc(OC)c1-c1nnc(N)s1 [1g]
# output Criterion not met

# input Determine whether measured inhibition at 10 µM meets or exceeds 30% for Nc1cccc(-c2nnc(N)s2)c1 [1j]
# output Criterion not met

# input Determine whether measured inhibition at 10 µM meets or exceeds 30% for CN(C)C(=O)NCc1ccc(-c2nnc(N)s2)cc1 [1p]
# output Criterion not met

# input Determine whether measured inhibition at 10 µM meets or exceeds 30% for Nc1nnc(Cc2cccc([N+](=O)[O-])c2)s1 [3c]
# output Criterion not met

# input Determine whether measured inhibition at 10 µM meets or exceeds 30% for Nc1nnc(CCc2ccccc2)s1 [3g]
# output Criterion not met

# input Determine whether measured inhibition at 10 µM meets or exceeds 30% for Nc1nnc(-c2ccc(O)c(O)c2)s1 [1d, 3′,4′-dihydroxy-phenyl-1,3,4-thiadiazole]
# output Criterion not met

# input Determine whether measured inhibition at 10 µM meets or exceeds 30% for Nc1nnc(NCc2ccc(Cl)c(Cl)c2)s1 [4e]
# output Criterion met

---

Target: UniProt P08684
Experiment: in vitro
Design: cytochrome P450 isoform inhibition liability assay
Below, each entry is listed alongside its reported inhibition at 10 µM.
Please give a number only; it is taken to be in %.

Examples with their reported inhibition at 10 µM follow.
[[record]]
compound = "Nc1cccc(-c2ccc(-c3nnc(N)s3)cc2)c1"
system_tested = "UniProt P08684"
result_number = 32

[[record]]
compound = "Nc1nnc(NCCCc2ccccc2)s1"
system_tested = "UniProt P08684"
result_number = 24.2

[[record]]
compound = "COc1cc(CNc2nnc(N)s2)cc(OC)c1OC"
system_tested = "UniProt P08684"
result_number = 11.4

[[record]]
compound = "Nc1nnc(-c2cc(O)c(O)c(O)c2)s1"
system_tested = "UniProt P08684"
result_number = 67.7

[[record]]
compound = "Nc1nnc(N)s1"
system_tested = "UniProt P08684"
result_number = 53.4


Shift focus to the following entry.
# input Read the entry Nc1nnc(N2CCC(Cc3ccccc3)CC2)s1 and write its reported inhibition at 10 µM.
# output 21.7

---

Test: in vitro
Set-up: cytotoxicity, per cent cell growth of A549 cells
Conditions: human, a549 cells; read-out: % cell growth A549 at 10uM
Below, each entry is listed alongside its reported viability at 10 µM.
Please give a number only; it is taken to be in %.

# input Read the entry Nc1nnc(-c2ccc(-c3nnc(N)s3)c(N)c2)s1 and write its reported viability at 10 µM.
# output 118

# input Read the entry Nc1cccc(-c2ccc(-c3nnc(N)s3)cc2)c1 and write its reported viability at 10 µM.
# output 137

# input Read the entry Nc1nnc(-c2ccc(Cl)c(Cl)c2)s1 and write its reported viability at 10 µM.
# output 107

# input Read the entry COCCCNc1nnc(N)s1 and write its reported viability at 10 µM.
# output 101

# input Read the entry CN(C)C(=O)NCc1ccc(-c2nnc(N)s2)cc1 and write its reported viability at 10 µM.
# output 109

---

Molecular target: CYP3A4 (Homo sapiens, UniProt P08684)
Sequence (P08684 whole entry): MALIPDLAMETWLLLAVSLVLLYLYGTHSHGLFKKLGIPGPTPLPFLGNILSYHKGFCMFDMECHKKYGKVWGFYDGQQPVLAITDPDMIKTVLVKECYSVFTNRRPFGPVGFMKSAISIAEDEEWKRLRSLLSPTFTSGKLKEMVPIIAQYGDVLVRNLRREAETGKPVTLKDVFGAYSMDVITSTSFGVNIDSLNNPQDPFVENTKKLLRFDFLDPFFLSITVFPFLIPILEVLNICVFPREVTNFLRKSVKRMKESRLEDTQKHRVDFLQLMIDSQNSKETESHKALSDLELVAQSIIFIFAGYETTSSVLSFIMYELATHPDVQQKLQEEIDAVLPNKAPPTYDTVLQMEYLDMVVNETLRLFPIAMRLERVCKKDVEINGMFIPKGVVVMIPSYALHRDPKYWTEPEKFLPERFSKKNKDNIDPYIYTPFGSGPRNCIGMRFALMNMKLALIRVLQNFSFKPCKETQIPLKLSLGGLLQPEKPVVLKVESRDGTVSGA
Assay: in vitro
Design: cytochrome P450 isoform inhibition liability assay
Experimental: Independent of the effect of any antiparasitic potential of compounds, they were evaluated using a panel of early-toxicity assays comprising cytotoxicity (A549, human lung adenocarcinoma epithelial cell line and WI-38, human lung fibroblasts), mitochondrial toxicity (786-O, human renal carcinoma cell line), hERG inhibition,[31] cytochrome P450 inhibition (CYP1A2, CYP2C9, CYP2C19, CYP2D6, and CYP3A4),[31] and Aurora B kinase inhibition. […] The hDHFR inhibition was determined at 100 μM. […]
Below, each entry is listed alongside its reported inhibition at 10 µM.
Phrase the answer as number then unit, nothing more needed.

[[record]]
compound = "CN(C)CCc1nnc(N)s1 [3i]"
system_tested = "CYP3A4 (Homo sapiens, UniProt P08684)"
measurement_kind = "inhibition at 10 µM"
result = "-14.3%"

[[record]]
compound = "Nc1nnc(-c2cccc([N+](=O)[O-])c2)s1 [1k]"
system_tested = "CYP3A4 (Homo sapiens, UniProt P08684)"
measurement_kind = "inhibition at 10 µM"
result = "-14.2%"

[[record]]
compound = "Nc1nnc(-c2cccc(-c3ccccc3)c2)s1 [2c]"
system_tested = "CYP3A4 (Homo sapiens, UniProt P08684)"
measurement_kind = "inhibition at 10 µM"
result = "59.5%"

[[record]]
compound = "COc1cccc(OC)c1-c1nnc(N)s1 [1g]"
system_tested = "CYP3A4 (Homo sapiens, UniProt P08684)"
measurement_kind = "inhibition at 10 µM"
result = "13%"

[[record]]
compound = "Cc1nnc(N)s1 [3a]"
system_tested = "CYP3A4 (Homo sapiens, UniProt P08684)"
measurement_kind = "inhibition at 10 µM"
result = "-22.3%"


# input Read the entry Nc1nnc(NCc2ccc(C(F)(F)F)cc2)s1 [4f] and write its reported inhibition at 10 µM.
# output 7.8%

# input Read the entry Nc1nnc(-c2ccc(OCc3ccc(Cl)c(Cl)c3)cc2)s1 [1r] and write its reported inhibition at 10 µM.
# output 14.9%
